Field: koff. Provide a value for each of the binders that follow.
target: T1, human IL-21R extracellular domain His-Flag fusion protein (human, UniProt Q9HBE5 20-232)
T1 construct: Biotinylated in the HTRF screen; also called hIL-21R-H/F; human IL-21R-H/F
T1 sequence (Q9HBE5 20-232): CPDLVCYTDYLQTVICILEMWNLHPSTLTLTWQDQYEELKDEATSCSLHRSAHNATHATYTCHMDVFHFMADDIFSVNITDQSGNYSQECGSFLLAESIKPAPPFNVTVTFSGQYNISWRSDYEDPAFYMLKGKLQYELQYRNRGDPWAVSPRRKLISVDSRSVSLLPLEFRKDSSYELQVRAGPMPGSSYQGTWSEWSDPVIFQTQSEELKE
experimental details: SPR, Ab captured on anti-human IgG, replicate experiment
Numbers only, in s⁻¹.

binder	measured result
AbS (antibody, V domains shown, CDR3 graft, residue limits derived as for m29; also called VHP/VL6; VHPTM/VL6) VH: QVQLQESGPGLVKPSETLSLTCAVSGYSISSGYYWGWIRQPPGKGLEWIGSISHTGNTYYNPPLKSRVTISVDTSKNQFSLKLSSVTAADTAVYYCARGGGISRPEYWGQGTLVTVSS VL: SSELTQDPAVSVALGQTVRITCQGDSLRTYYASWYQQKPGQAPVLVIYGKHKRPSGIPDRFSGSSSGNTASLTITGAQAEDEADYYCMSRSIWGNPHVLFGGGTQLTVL	0.000305
AbT (antibody, human IgG1, V domains shown, CDR3 graft, residue limits derived as for m29; also called VHP/VL9; VHPTM/VL9) VH: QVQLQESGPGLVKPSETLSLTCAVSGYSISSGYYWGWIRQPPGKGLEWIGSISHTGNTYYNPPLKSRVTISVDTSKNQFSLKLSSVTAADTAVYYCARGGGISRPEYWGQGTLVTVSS VL: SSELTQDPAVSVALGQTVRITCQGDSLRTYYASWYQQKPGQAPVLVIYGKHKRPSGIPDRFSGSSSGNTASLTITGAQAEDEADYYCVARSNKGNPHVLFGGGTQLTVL	7.42e-05
parental 18A5 antibody (antibody, V domains shown, also called 18A5 IgG) VH: QVQLQESGPGLVKTSETLSLTCAVSGYSISSGYYWGWIRQPPGKGLEWIGSISHTGNTYYNPPLKSRVTISVDTSKNQFSLKLSSVTAADTAVYYCARGGGISRPEYWGKGTLVTVSS VL: SSELTQDPPVSVALGQTVTLTCQGDSLRTYYASWYQQKSGQAPILLLYGKHKRPSGIPDRFSGSTSGDTASLTITGAQAEDEADYYCNSRDSSGNPHVLFGGGTQLTVL	0.00134

Now, please, on to the next binder.
Inquiry: What value of koff has been reported for the following binder? AbP (antibody, human IgG1, V domains shown, CDR3 graft, residue limits derived as for m29; also called VHP/VL20; VHPTM/VL20) VH: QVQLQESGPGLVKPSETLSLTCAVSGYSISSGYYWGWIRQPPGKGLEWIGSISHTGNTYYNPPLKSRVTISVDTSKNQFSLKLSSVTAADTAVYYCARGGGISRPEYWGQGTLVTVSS VL: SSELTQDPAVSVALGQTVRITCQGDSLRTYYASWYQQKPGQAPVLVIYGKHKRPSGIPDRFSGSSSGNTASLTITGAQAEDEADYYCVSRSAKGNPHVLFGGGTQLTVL
Reply text: 0.000102

The measured values listed here are drawn from patent US20120276102A1.
